# PROCEDURE_DETAILS: Microsomal stability, human liver microsomes (predicted hepatic clearance)
# MEASUREMENT_SETUP: predicted from in vitro microsomal stability data
READOUT_NAME: Predicted Hepatic Clearance (Pred. Cl.) (mL/min/kg)
Answers are plain numbers, in mL/min/kg.

Sample records with Predicted Hepatic Clearance (Pred. Cl.):
{"COMPOUND": "COCCn1c(Cc2cc(F)c(-c3ccc(F)c(OCc4ccc(C#N)cc4F)n3)cc2F)nc2c(F)cc(C(=O)O)cc21", "READING": 3.17}
{"COMPOUND": "N#Cc1ccc(COc2cccc(-c3cc(F)c(Cc4nc5ccc(C(=O)O)cc5n4C[C@@H]4CCO4)cc3F)n2)c(F)c1 [Example 444]", "READING": 4.13}

// for each compound below, give its Predicted Hepatic Clearance (Pred. Cl.)
1. O=C(O)c1ccc2nc(Cc3cc(F)c(-c4cccc(OCc5cnc(Cl)cc5F)n4)cc3F)n(C[C@@H]3CCO3)c2c1
2. COCCn1c(Cc2cc(F)c(-c3cccc(OCc4ccc(-c5cnn(C)c5)cc4F)n3)cc2F)nc2ccc(C(=O)O)cc21
3. COc1cc(Cl)ncc1COc1cccc(-c2cc(F)c(Cc3nc4ccc(C(=O)O)cc4n3C[C@@H]3CCO3)cc2F)n1
4. N#Cc1ccc(COc2nc(-c3ccc(Cc4nc5c(F)cc(C(=O)O)cc5n4C[C@@H]4CCO4)cc3F)ncc2F)c(F)c1

Result block:
1. 2.5
2. 4
3. 9
4. 3.33

// for each compound below, give its Predicted Hepatic Clearance (Pred. Cl.)
1. O=C(O)c1ccc2nc(Cc3c(F)cc(-c4cccc(OCc5ccc(C(F)F)cc5F)n4)c(F)c3F)n(Cc3ncco3)c2c1
2. COCCn1c(Cc2cc(F)c(-c3cccc(OCc4ccc(C#N)cc4F)n3)cc2F)nc2ccc(C(=O)O)c(F)c21
3. N#Cc1ccc(COc2cccc(-c3cc(CO)c(Cc4nc5ccc(C(=O)O)cc5n4C[C@@H]4CCO4)cc3F)n2)c(F)c1
4. N#Cc1ccc(COc2cccc(-c3ccc(Cc4nc5c(F)cc(C(=O)O)cc5n4Cc4ccon4)c(F)c3)n2)c(F)c1
5. COCCn1c(Cc2cc(F)c(-c3cccc(OCc4ccc(-c5ncccn5)cc4F)n3)cc2F)nc2ccc(C(=O)O)cc21

Result block:
4.33
5.17
3.17
2.33
1.83

// for each compound below, give its Predicted Hepatic Clearance (Pred. Cl.)
1. COCCn1c(Cn2cc(-c3csc(OCc4ccc(C#N)cc4F)n3)cn2)nc2ccc(C(=O)O)cc21
2. N#Cc1ccc(COc2cccc(-c3ccc(Cc4nc5ccc(C(=O)O)cc5n4CC4CCO4)c(F)c3)n2)c(F)c1 (centres unmarked) [Example 15]
3. O=C(O)c1ccc2nc(Cc3cc(F)c(-c4ccnc(OCc5ccc(C(F)(F)F)cc5F)n4)cc3F)n(C[C@@H]3CCO3)c2c1
4. COCCn1c(Cc2ccc(-c3cccc(NC(=O)c4ccccc4)n3)cc2F)nc2ccc(C(=O)O)cc21
5. COCCn1c(Cc2c(F)cc(-c3cncnc3OCc3ccc(C#N)cc3F)cc2F)nc2ccc(C(=O)O)cc21
6. COCCn1c(Cc2ccc(-c3cccc(OCc4nccnc4OC)n3)cc2F)nc2ccc(C(=O)O)cc21

Result block:
7
3.3
1.83
7.33
8.5
19.2

// for each compound below, give its Predicted Hepatic Clearance (Pred. Cl.)
1. COCCn1c(Cc2cc(F)c(-c3ccnc(OCc4ccc(C#N)cc4F)n3)cc2F)nc2c(F)cc(C(=O)O)cc21
2. N#Cc1cc(F)c(COc2nccc(-c3ccc(Cc4nc5ccc(C(=O)O)cc5n4C[C@@H]4CCO4)cc3F)n2)cc1F
3. COCCn1c(Cc2ccc(-c3ccnc(OCc4ccc(C#N)cc4OC)n3)c(F)c2)nc2ccc(C(=O)O)cc21
4. COCCn1c(Cc2cc(F)c(-c3ccc(F)c(OCc4ccc(C(F)F)cc4F)n3)cc2F)nc2ccc(C(=O)O)cc21
5. COCCn1c(Cc2ccc(-c3cccc(OCc4ccccc4SC(F)(F)F)n3)cc2F)nc2ccc(C(=O)O)cc21

Result block:
4
5.67
12.3
1.83
17.8
